This collection of values is drawn from ChEMBL document CHEMBL1144052.

test system: KB; test: Cytotoxicity against human KB cells; assay type: functional, cell-based
The source made the active and inactive calls. The rule behind the calls is not given here.
valueKind: Activity

CC[C@@H](C)[C@@H](O)C(=O)O[C@@H]1C[C@]2(C)C(=CC[C@H]2[C@H]2CO[C@H](C=C(C)C)C2)[C@@]2(C)[C@H]1[C@@](C)(CCC(=O)O)[C@@H](C(C)(C)O)C[C@H]2OC(=O)[C@H](O)[C@H](C)CC    inactive
C/C=C(\C)[C@@H](O)C(=O)O[C@@H]1C[C@H](C(C)(C)O)[C@](C)(CCC(=O)O)[C@H]2CC[C@]3(C)C(=CC[C@H]3[C@H]3CO[C@H](C=C(C)C)C3)[C@@]21C    inactive
C/C=C(\C)[C@@H](O)C(=O)O[C@@H]1C[C@H](C(C)(C)O)[C@](C)(CCC(=O)O)[C@H]2[C@H](OC(=O)[C@H](O)C(C)C)C[C@]3(C)C(=CC[C@H]3[C@H]3CO[C@H](C=C(C)C)C3)[C@@]21C    inactive
